- System: HDAC
- Method description: Inhibitory activity against HDAC (BIOMOL Quantizyme Assay system, Fluor de Lys substrate)
- Type: biochemical
- Run parameters: Table 7, formula (4) series; HeLa nuclear extract as source of HDAC enzymes; enzyme reaction 1 hr; read-out: HDAC Inhibitory conc. (IC50, μM/ml)
Listed here: items and their measured IC50.
Write it as a number; the unit µM goes unstated.

O=C(NO)c1ccc(/C=C(/CNC2CCN(C3CC3)CC2)COc2cccc3ccccc23)cc1 [Example 4-10] | 0.011

Short answer please: IC50, HDAC, entry O=C(NO)c1ccc(/C=C(/CNC2CCCCC2)COc2cccc3ccccc23)cc1 [Example 4-21]
0.03

Short answer please: IC50, HDAC, entry CC(C)(C)OC(=O)N1CCC(NC/C(=C/c2ccc(C(=O)NO)cc2)COc2cccc3ccccc23)C1 (centres unmarked) [Example 4-4]
0.208

Short answer please: IC50, HDAC, entry O=C(NO)c1ccc(/C=C(/CNCCc2ccc(O)cc2)COc2cccc3ccccc23)cc1 [Example 4-17]
0.003

Short answer please: IC50, HDAC, entry O=C(NO)c1ccc(/C=C(/CNC2CCN(C3CC3)C2)COc2cccc3ccccc23)cc1 (centres unmarked) [Example 4-11]
0.023

Short answer please: IC50, HDAC, entry O=C(NO)c1ccc(/C=C(/CNCc2ccc(OC(F)(F)F)cc2)COc2cccc3ccccc23)cc1 [Example 4-3]
0.14

Short answer please: IC50, HDAC, entry O=C(NO)c1ccc(/C=C(/CNC2CCN(C(=O)C3CCCCC3)C2)COc2cccc3ccccc23)cc1 (centres unmarked) [Example 4-6]
0.061

Short answer please: IC50, HDAC, entry CC(C)N(CCNC/C(=C/c1ccc(C(=O)NO)cc1)COc1cccc2ccccc12)C(C)C [Example 4-19]
0.016

Reference source: patent US8053435B2
